Experiment: ATG_CRE_CIS: Attagene CIS-FACTORIAL HepG2 Assay for human cAMP Responsive Element (CRE) binding protein 3 (AID 2282926)
Conditions: HepG2 CRE cis-reporter, Attagene multiplexed mRNA; actives raise or lower the signal
Experimental: ATG_CIS is a cell-based, multiplexed-readout assay that uses HepG2, a human liver cell line, with measurements taken at 24 hours after chemical dosing in a 24-well plate.ATG_CRE_CIS is one of 52 assay component(s) measured or calculated from the ATG_CIS assay. […] This assay endpoint, ATG_CRE_CIS, was analyzed with bidirectional fitting relative to DMSO as the negative control and baseline of activity. […]
Active and inactive are the calls of the source. How the source made its calls: active means hit-call score of the fitted dose curve at least 0.9, where 1 is the maximum; inactive means score below 0.9.
Give one outcome, nothing more. List: YES for active, NO for inactive

Check out these entries, answers already filled in.
• CC1=NN(c2cc(S(=O)(=O)O)ccc2Cl)C(=O)C1N=Nc1ccccc1 (stereo not given) = NO
• CC/C=C\C/C=C\C/C=C\CCCCCCCC(=O)O = YES
• CCCCCCCCCCCCCCCC[N+](C)(C)CC = NO
• O=C1CCCC1 = NO

Please find the next compound below.
Hello, I am checking results. What call was entered for Cc1cnc(NC(=O)C2=C(O)c3ccccc3S(=O)(=O)N2C)s1 ?
NO

* * *

Target: Paired box protein Pax-6 (Homo sapiens) (UniProt P26367)
Sequence (P26367 whole entry, looked up): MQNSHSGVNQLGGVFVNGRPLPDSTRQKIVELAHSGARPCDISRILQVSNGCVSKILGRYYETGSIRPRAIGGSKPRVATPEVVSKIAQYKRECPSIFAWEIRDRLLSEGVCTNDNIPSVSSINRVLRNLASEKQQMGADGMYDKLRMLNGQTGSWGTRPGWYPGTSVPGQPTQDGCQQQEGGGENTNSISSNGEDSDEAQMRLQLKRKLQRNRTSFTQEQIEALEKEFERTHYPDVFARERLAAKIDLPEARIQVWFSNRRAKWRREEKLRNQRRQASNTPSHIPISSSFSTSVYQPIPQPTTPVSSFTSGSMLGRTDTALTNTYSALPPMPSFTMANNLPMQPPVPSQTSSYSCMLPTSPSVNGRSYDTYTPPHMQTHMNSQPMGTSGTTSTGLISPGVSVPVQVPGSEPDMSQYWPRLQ
Assay: ATG_Pax6_CIS: Attagene CIS-FACTORIAL HepG2 Assay for human Paired Box 6 (PAX6) (AID 2282956)
Conditions: HepG2 CIS-FACTORIAL PAX6 reporter transcription, RNA readout; actives raise or lower the signal
Calls of active or inactive are those of the source. Rule for the calls: active = hit-call score of the fitted dose curve at least 0.9, where 1 is the maximum; inactive = score below 0.9.
Parameter call: string, one of active, inactive

Below are worked cases with known answers.
• CC(C)(C)c1ccc(OC(=O)c2ccccc2O)cc1 = inactive
• COC(=O)c1cc(Cl)ccc1[N+](=O)[O-] = inactive
• Cc1ccc(C2OC[C@@H]3OC(c4ccc(C)cc4)O[C@H]([C@H](O)CO)[C@@H]3O2)cc1 (stereo not given in full) = inactive
• O=c1c2ccccc2nnn1CCl = inactive
• CC(C)C1=CC2=CC[C@@H]3[C@](C)(CCC[C@@]3(C)C(=O)O)[C@H]2CC1 = active
• Cc1cccc(N(C)C(=S)Oc2ccc3ccccc3c2)c1 = inactive

With those in mind, consider the next compound.
What is the recorded call for this compound in the test? O=C(c1ccccc1)c1ccc(O)c(O)c1O
inactive

* * *

Experiment: ATG_GATA_CIS: Attagene CIS-FACTORIAL HepG2 Assay for human GATA Binding Protein (AID 2282944)
Details: HepG2 GATA cis-element reporter, Attagene multiplex mRNA; actives raise or lower the signal
The source made the active and inactive calls. How the source made its calls: active means hit-call score of the fitted dose curve at least 0.9, where 1 is the maximum; inactive means score below 0.9.
measure: outcome

Some compounds with known outcome results, for comparison:
• C=CCCCCCCCCC(=O)OCCCC = inactive
• CC(=O)Nc1ccc2c(c1)Cc1cc(NC(C)=O)ccc1-2 = inactive
• C[Si](C)O[Si](C)(C)O[Si](C)(C)O[Si](C)C = inactive
• CC(C)(Oc1ccc(C2CC2(Cl)Cl)cc1)C(=O)O (stereo not drawn) = inactive
• CCN(CC#N)c1cccc(C)c1 = inactive
• CC=CC(=O)N(CC)c1ccccc1C = inactive
• COCCOCCOCCOCCOC = inactive

# evaluate next
GET /value?item= CCCC(C)CCC(C)=O (stereo not drawn) &field=outcome returns inactive

Data origin: PubChem BioAssay (EPA / NIEHS)
